- method notes: Clearance in Cynomolgus monkey at 0.167 mg/kg, iv measured upto 24 hrs by LC-MS/MS analysis
- Assay type: ADME, organism-based, Macaca fascicularis
- condition label: in vivo
Positions of bridges follow the written chain, without caps; N, C: chain ends. Non-standard residues stand in square brackets, D forms with d. Residues, ends and D or L forms follow the SMILES beside them. *: point of attachment. hPhe(3-Cl-4-CF3) = N[C@@H](CCc1ccc(C(F)(F)F)c(Cl)c1)C(=O)O; NMeGly(cPent) = CN[C@H](C(=O)O)C1CCCC1; NMeCha = CN[C@@H](CC1CCCCC1)C(=O)O; NMeD = CN[C@@H](CC(=O)O)C(=O)O; NMeL = CN[C@@H](CC(C)C)C(=O)O; Morpholide = C1CN(*)CCO1; NMeA = CN[C@@H](C)C(=O)O; Ac5c = NC1(C(=O)O)CCCC1; Aze = O=C(O)[C@@H]1CCN1; Sar = CNCC(=O)O
measurement kind: clearance (mL/min/kg)

1) CC[C@H](C)[C@@H]1NC(=O)[C@H](CC(C)C)N(C)C(=O)C[C@@H](C(=O)N2CCOCC2)N(C)C(=O)[C@H](C2CCCC2)N(C)C(=O)C2(CCCC2)NC(=O)[C@@H]2CCCN2C(=O)[C@H](CCc2ccc(C(F)(F)F)c(Cl)c2)NC(=O)CN(C)C(=O)[C@H](CC2CCCCC2)N(C)C(=O)[C@@H]2CCN2C(=O)[C@H](C)N(C)C1=O ([NMeL]I[NMeA][Aze][NMeCha][Sar][hPhe(3-Cl-4-CF3)]P[Ac5c][NMeGly(cPent)][NMeD]-Morpholide; lactam N-11)    4.3
